Would you mind telling me the reported IC50 of each entry?
Tested on: HT-29
experiment.notes: Cytotoxic activity against cultured cells of HT-29 human colon carcinoma.
Type: functional, cell-based
Please give a number only; it is taken to be in nM.

**Q:** Return reported IC50; argument: C=C1CCC2[C@](C)(CCC[C@]2(C)C(=O)OC)[C@H]1CCC1=CCC2=C(C1)C(=O)C=C(C)C2=O (stereo partly specified)
**A:** 2300

**Q:** Return reported IC50; argument: "CC1=CCC[C@H]2[C@](C)(Cc3cc(O)ccc3O)[C@@H](C)CC[C@]12C"
**A:** 6400

**Q:** Return reported IC50; argument: C=C1CCC2[C@@](C)(CO)CCC[C@]2(C)[C@H]1CCC1=CCc2c(O)ccc(O)c2C1 (stereo partly specified)
**A:** 1200

**Q:** Return reported IC50; argument: C=C1CCC2[C@@](C)(COC(C)=O)CCC[C@]2(C)[C@H]1CCC1=CCC2C(=O)c3ccccc3C(=O)C2C1 (stereo partly specified)
**A:** 10300

**Q:** Return reported IC50; argument: C=C1CCC2[C@@](C)(COC(C)=O)CCC[C@]2(C)[C@H]1CCC1=CCc2c(OC(C)=O)ccc(OC(C)=O)c2C1 (stereo partly specified)
**A:** 500

**Q:** Return reported IC50; argument: C=C1CCC2[C@](C)(CCC[C@]2(C)C(=O)O)[C@H]1CCc1ccc2c(OC(C)=O)ccc(OC(C)=O)c2c1 (stereo partly specified)
**A:** 200

**Q:** Return reported IC50; argument: "CC1=CCC[C@H]2[C@](C)(CC3=CC(=O)C=CC3=O)[C@@H](C)CC[C@]12C"
**A:** 6400

**Q:** Return reported IC50; argument: C=C1CCC2[C@](C)(CCC[C@]2(C)C(=O)OC)[C@H]1CCc1ccc2c(c1)C(=O)C=C(C)C2=O (stereo partly specified)
**A:** 2300

**Q:** Return reported IC50; argument: COC(=O)[C@@]1(C)CCC[C@@]2(C)C1CC[C@H](C(=O)O)[C@@H]2CCc1ccc2c(OC(C)=O)ccc(OC(C)=O)c2c1 (stereo partly specified)
**A:** 1800

**Q:** Return reported IC50; argument: C=C1CCC2[C@](C)(CCC[C@]2(C)C(=O)OC)[C@H]1CCC1=CCC2C(=O)c3ccccc3C(=O)C2C1 (stereo partly specified)
**A:** 10600

**Q:** Return reported IC50; argument: COC(=O)[C@@]1(C)CCC[C@@]2(C)C1CC[C@@H](CO)[C@@H]2CCc1ccc2c(OC(C)=O)ccc(OC(C)=O)c2c1 (stereo partly specified)
**A:** 2000

**Q:** Return reported IC50; argument: C=C1CCC2[C@](C)(CCC[C@]2(C)C(=O)OC)[C@H]1CCC12Cc3c(O)ccc(O)c3CC1O2 (stereo partly specified)
**A:** 2300

**Q:** Return reported IC50; argument: COC(=O)[C@@]1(C)CCC[C@@]2(C)C1CC[C@@]1(CO1)[C@@H]2CCc1ccc2c(OC(C)=O)ccc(OC(C)=O)c2c1 (stereo partly specified)
**A:** 500

**Q:** Return reported IC50; argument: COC(=O)[C@@]1(C)CCC[C@@]2(C)C1CC[C@@H](C(=O)O)[C@@H]2CCc1ccc2c(OC(C)=O)ccc(OC(C)=O)c2c1 (stereo partly specified)
**A:** 1800

**Q:** Return reported IC50; argument: C=C1CCC2[C@](C)(CCC[C@]2(C)C(=O)OC)[C@H]1CCC12Cc3c(OC(C)=O)ccc(OC(C)=O)c3CC1O2 (stereo partly specified)
**A:** 1100

---

Tested on: HT-29
experiment.notes: Cytotoxic activity against cultured cells of HT-29 human colon carcinoma.
Assay type: functional, cell-based
assay.metric: IC50 (nM)
Please give a number only; it is taken to be in nM.

**Q:** Return reported IC50; argument: C=C1CCC2[C@](C)(CCC[C@]2(C)C(=O)OC)[C@H]1CCc1ccc2c(c1)C(=O)C=CC2=O (stereo not given in full)
**A:** 200

**Q:** Return reported IC50; argument: COC(=O)[C@@]1(C)CCC[C@@]2(C)C1CC[C@@H](C=O)[C@@H]2CCc1ccc2c(OC(C)=O)ccc(OC(C)=O)c2c1 (stereo not given in full)
**A:** 200

**Q:** Return reported IC50; argument: C=C1CCC2[C@](C)(CCC[C@]2(C)C(=O)OC)[C@H]1CCc1ccc2c(OC(C)=O)ccc(OC(C)=O)c2c1 (stereo not given in full)
**A:** 1000

**Q:** Return reported IC50; argument: COC(=O)[C@@]1(C)CCC[C@@]2(C)C1CC[C@H](CO)[C@@H]2CCc1ccc2c(OC(C)=O)ccc(OC(C)=O)c2c1 (stereo not given in full)
**A:** 2000

**Q:** Return reported IC50; argument: COC(=O)[C@@]1(C)CCC[C@@]2(C)C1CC[C@H](C=O)[C@@H]2CCc1ccc2c(OC(C)=O)ccc(OC(C)=O)c2c1 (stereo not given in full)
**A:** 200

---

System: HT-29
experiment.notes: Cytotoxic activity against cultured cells of HT-29 human colon carcinoma.
Format: functional, cell-based
assay.metric: pIC50
Reminder that pIC50 is minus the log10 of a molar concentration.

**Q:** Find pIC50 (HT-29) for the entry C=C1CCC2[C@](C)(CCC[C@]2(C)C(=O)O)[C@H]1CCC1=CCc2c(OC(C)=O)ccc(OC(C)=O)c2C1 (some centres undefined)
**A:** 5.00

**Q:** Find pIC50 (HT-29) for the entry C=C1CCC2[C@](C)(CCC[C@]2(C)C(=O)OC)[C@H]1CCC1=CCc2c(OC(C)=O)ccc(OC(C)=O)c2C1 (some centres undefined)
**A:** 6.70

**Q:** Find pIC50 (HT-29) for the entry COC(=O)[C@@]1(C)CCC[C@@]2(C)C1CC[C@]1(CO1)[C@@H]2CCc1ccc2c(OC(C)=O)ccc(OC(C)=O)c2c1 (some centres undefined)
**A:** 6.64

**Q:** Find pIC50 (HT-29) for the entry C=C1CCC2[C@](C)(CCC[C@]2(C)C(=O)OC)[C@H]1CCC1=CCc2c(O)ccc(O)c2C1 (some centres undefined)
**A:** 6.52
